Ok so here's the combined literature set: IC50 for Autotaxin (Homo sapiens).

// solved cases for IC50 follow
{"columns": ["compound", "IC50"],
 "data": [
  ["CCc1nc2sc(N3CCC(N(C)C(=O)NC4CC4)C3)nn2c1N(C)c1nc(-c2ccc(F)cc2)c(C#N)s1 (stereo not drawn)", "100 to 500 nM"],
  ["CC(=O)N1CC2(CCN2C(=O)c2cnc(NCc3cc(OC(F)(F)F)cc(C4CC4)c3)nc2)C1", "< 100 nM"]
]}

Please examine the following record next.
Ask: // returns reported IC50 for input `Cc1c(Sc2cccc(C(=O)O)c2)c2ccc(Cl)c(F)c2n1CC(=O)N1CCC2(CC1)CC(=O)C2`
Result: ≤ 500 nM

====

Ok so here's the combined literature set: IC50 for Autotaxin (Homo sapiens).

{"columns": ["compound", "IC50"],
 "data": [
  ["O=C(c1cnc(NCc2cc(OC(F)(F)F)cc(C3CC3)c2)nc1)N1CCC12CN(C1COC1)C2", "< 100 nM"]
]}

Ask: Enter reported IC50 observed with Autotaxin (Homo sapiens) for `CC(C)[C@@H](NC(=O)c1cc(C(F)(F)F)ccc1F)C(=O)N1CCC2(CC1)C(=O)N(C)CN2c1ccc(NS(C)(=O)=O)cc1`
Result: < 500 nM

Ask: Enter reported IC50 observed with Autotaxin (Homo sapiens) for `CN1CN(c2ccc(=O)n(C)c2)C2(CCN(C(=O)[C@H](NC(=O)c3cc(C(F)(F)F)ccc3F)C3CCCC3)CC2)C1=O`
Result: < 500 nM

Ask: Enter reported IC50 observed with Autotaxin (Homo sapiens) for CCc1nc2sc(N3CCC(N(C)S(C)(=O)=O)C3)nn2c1N(C)c1nc(-c2ccc(F)cc2)c(C#N)s1 (centres unmarked)
Result: 0.01 to 100 nM

Ask: Enter reported IC50 observed with Autotaxin (Homo sapiens) for CCCCCC1CN(CC(=O)NCC(=O)O)C(=O)c2cc(-c3ccc(Cl)cc3)nn21 (centres unmarked)
Result: 10 to 100 nM

====

Ok so here's the combined literature set: IC50 for Autotaxin (Homo sapiens).

// solved cases for IC50 follow
{"columns": ["compound", "IC50"],
 "data": [
  ["O=C(c1ccc2[nH]nnc2c1)N1C[C@@H]2[C@H](C1)[C@H]1CN(C(=O)c3cc4ccc(OC(F)(F)F)cc4[nH]3)C[C@@H]21", "8 nM"],
  ["CCc1ccc(F)c(C(=O)N[C@@H](C(=O)N2CCC3(CC2)C(=O)N(C)CN3c2ccc(C(=O)O)cc2)C(C)C)c1", "< 500 nM"],
  ["C[C@H](c1ccc2c(C(F)(F)F)c(O[C@H]3CC[C@@H](C)CC3)ccc2c1)N1CCC[C@H](CC(=O)O)C1", "≤ 100 nM"]
]}

Ask: // returns reported IC50 for input `O=C(CCc1ccc(OC(F)(F)F)cc1F)N1C[C@@H]2CN(C(=O)c3ccc4[nH]nnc4c3)C[C@H]2C1`
Result: 8 nM

Ask: // returns reported IC50 for input `Cc1c(Sc2cccc(C(=O)O)c2)c2ccc(Cl)c(F)c2n1CC(=O)N1CCC2(CCN(Cc3ccccc3)CC2)C1`
Result: 500 to 3000 nM

Ask: // returns reported IC50 for input `CCc1ccc(F)c(C(=O)N[C@@H](C(=O)N2CCC3(CC2)C(=O)N(C)CN3c2ccc3nc[nH]c3c2)C(C)C)c1`
Result: < 500 nM

Ask: // returns reported IC50 for input CCCCC1CN(CC(=O)NCc2nn[nH]n2)C(=O)c2cc(-c3ccc(Cl)cc3)nn21 (stereo not shown)
Result: 10 to 100 nM

====

Ok so here's the combined literature set: IC50 for Autotaxin (Homo sapiens).

// solved cases for IC50 follow
{"columns": ["compound", "IC50"],
 "data": [
  ["CCCCC1CN(Cc2cccnc2)C(=O)c2cc(-c3ccc(Cl)cc3)nn21 (centres unmarked)", "10 to 100 nM"],
  ["CN(C)CC1CN(C(=O)c2cnc(NCc3cc(OC(F)(F)F)cc(C4CC4)c3)nc2)C1", "100 to 1000 nM"],
  ["CCCCC1CN(Cc2ccc(C#N)cc2)C(=O)c2cc(-c3ccc(C(F)(F)F)cc3)nn21 (centres unmarked)", "100 to 1000 nM"],
  ["CCc1nc2sc(N3CC[C@@H](N(C=O)CC(=O)N4CC(O)C4)C3)nn2c1N(C)c1nc(-c2ccc(F)cc2)c(C#N)s1", "0.01 to 100 nM"]
]}

Please examine the following record next.
Ask: // returns reported IC50 for input `CC(=O)Nc1cc(C#N)ccc1-c1cc2n(n1)[C@@H](C)CN(C[C@H]1CNC(=O)O1)C2=O`
Result: 10 to 100 nM

====

Ok so here's the combined literature set: log10 of IC50 for Autotaxin (Homo sapiens, UniProt Q13822).
Give log10 of IC50, with IC50 taken in nM.

// solved cases for log10 of IC50 follow
{"columns": ["cpd smiles", "value measured"],
 "data": [
  ["O=C(COc1ccc(OC(F)(F)F)cc1)N1C[C@@H]2CN(C(=O)c3ccc4[nH]nnc4c3)C[C@H]2C1", 1.08],
  ["O=C(OCc1ccc(OC(F)(F)F)cc1)N1C[C@@H]2[C@H](C1)[C@H]1CN(C(=O)c3ccc4[nH]nnc4c3)C[C@@H]21", 1.15],
  ["Cc1nnn(Cc2cc(C(F)(F)F)ccc2CCC(=O)N2CCN(Cc3ccc(S(N)(=O)=O)cc3)CC2)n1", 1.43],
  ["Cc1cc(OCc2n[nH]c(=O)n2C)c(C(C)(C)C)cc1Cl", 0.30],
  ["O=C(c1ccc2[nH]nnc2c1)N1C[C@H]2CN(C(=O)c3cc4cc(OC(F)(F)F)ccc4[nH]3)C[C@@H]2C1", 1.08]
]}

Ask: Enter reported log10 of IC50 observed with Autotaxin (Homo sapiens, UniProt Q13822) for `O=C(/C=C/c1ccc(OC(F)(F)F)cc1)N1CC[C@@H]2CN(C(=O)NCCc3cnn[nH]3)C[C@@H]2CC1`
Result: 2.21

Ask: Enter reported log10 of IC50 observed with Autotaxin (Homo sapiens, UniProt Q13822) for `Cc1cc(OCC(=O)N2C[C@@H]3CN(C(=O)c4ccc5[nH]nnc5c4)C[C@H]3C2)c(C(C)C)cc1Cl`
Result: 0.70

Ask: Enter reported log10 of IC50 observed with Autotaxin (Homo sapiens, UniProt Q13822) for `O=C(c1ccc2[nH]nnc2c1)N1CC2(CCN(C(=O)N3Cc4ccc(Cl)cc4C3)CC2)C1`
Result: 3.54

Ask: Enter reported log10 of IC50 observed with Autotaxin (Homo sapiens, UniProt Q13822) for `O=C(OCc1cc(F)cc(C(F)(F)F)c1)N1C[C@@H]2CN(C(=O)c3ccc4[nH]nnc4c3)C[C@@H]2C1`
Result: 1.71

Ask: Enter reported log10 of IC50 observed with Autotaxin (Homo sapiens, UniProt Q13822) for `COc1cc(CCC(=O)N2C[C@@H]3CN(C(=O)c4ccc5[nH]nnc5c4)C[C@H]3C2)cc(OC(F)(F)F)c1`
Result: 0.30

====

Ok so here's the combined literature set: IC50 for Autotaxin (Homo sapiens, UniProt Q13822).

Ask: Enter reported IC50 observed with Autotaxin (Homo sapiens, UniProt Q13822) for `CC(C)[C@@H](NC(=O)c1cc(C(F)(F)F)ccc1F)C(=O)N1CCC2(CC1)C(=O)N(C)C(=O)N2C1CCCCC1`
Result: < 500 nM

Ask: Enter reported IC50 observed with Autotaxin (Homo sapiens, UniProt Q13822) for `CC(C)[C@@H](NC(=O)c1cc(C(F)(F)F)ccc1F)C(=O)N1CCC2(CC1)C(=O)N(C)CN2c1ccc(C(=O)O)cc1`
Result: < 500 nM

Ask: Enter reported IC50 observed with Autotaxin (Homo sapiens, UniProt Q13822) for `O=C(c1cnc(NCc2cccc(Cl)c2Cl)nc1)N1CCC12COC2`
Result: 100 to 1000 nM

Ask: Enter reported IC50 observed with Autotaxin (Homo sapiens, UniProt Q13822) for CCCCC1CN(CC(=O)N2CCCC[C@@H]2C)C(=O)c2cc(-c3ccc(Cl)cc3)nn21 (stereo partly drawn)
Result: 10 to 100 nM

Ask: Enter reported IC50 observed with Autotaxin (Homo sapiens, UniProt Q13822) for CCCCCC1CN(Cc2ccc(C)cc2)C(=O)c2cc(-c3ccc(Cl)cc3)nn21 (stereo not drawn)
Result: 100 to 1000 nM

Ask: Enter reported IC50 observed with Autotaxin (Homo sapiens, UniProt Q13822) for CCCCCC1CN(Cc2cncc(C(=O)O)c2)C(=O)c2cc(-c3ccc(Cl)cc3)nn21 (stereo not drawn)
Result: 10 to 100 nM

Ask: Enter reported IC50 observed with Autotaxin (Homo sapiens, UniProt Q13822) for CCCCCC1CN(CC(=O)Nc2ccncc2)C(=O)c2cc(-c3ccc(Cl)cc3)nn21 (stereo not drawn)
Result: ≥ 1000 nM

Ask: Enter reported IC50 observed with Autotaxin (Homo sapiens, UniProt Q13822) for `CCNc1cc(Cl)ccc1-c1cc2n(n1)[C@@H](C)CN(Cc1ccc(C#N)cc1)C2=O`
Result: 100 to 1000 nM

Ask: Enter reported IC50 observed with Autotaxin (Homo sapiens, UniProt Q13822) for CCCCC1CN(CC2CCCO2)C(=O)c2cc(-c3ccc(Cl)cc3)nn21 (stereo not drawn)
Result: 10 to 100 nM
